Each entry below lists one item and its recorded inhibition value.
- assayTarget: Pantothenate synthetase (Mycobacterium tuberculosis (strain ATCC 25618 / H37Rv)) (UniProt P9WIL5)
- Sequence (P9WIL5 whole entry, looked up): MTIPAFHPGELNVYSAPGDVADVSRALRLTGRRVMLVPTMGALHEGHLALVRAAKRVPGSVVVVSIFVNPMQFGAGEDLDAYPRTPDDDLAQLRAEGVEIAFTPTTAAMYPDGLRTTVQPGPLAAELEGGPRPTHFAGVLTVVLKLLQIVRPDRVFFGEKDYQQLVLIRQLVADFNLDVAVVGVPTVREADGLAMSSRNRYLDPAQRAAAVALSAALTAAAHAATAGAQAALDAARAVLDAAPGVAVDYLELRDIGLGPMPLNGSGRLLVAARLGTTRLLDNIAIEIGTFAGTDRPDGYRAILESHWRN
- runDescription: Coupled enzyme confirmation of inhibitors against recombinant Mtb PanC (AID 375);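 note: 0% = full reaction with vehicle and 100% = no enzyme background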
- conditionContext: coupled enzyme assay; at 10 µM, hits give high values
metricName: inhibition (%)

- molecule: "CCNS(=O)(=O)c1ccc(S(=O)(=O)N(Cc2ccccn2)C2CCCCC2)cc1"
  unitOfMeasure: "%"
  obsValue: 1
- molecule: "Cc1ccc(S(=O)(=O)N2CCOCC2)cc1C(=O)Nc1nc(-c2cccnc2)cs1"
  unitOfMeasure: "%"
  obsValue: 0
- molecule: "C/C(=N\\O)C(=O)C(CN1CCCCC1)CN1CCCCC1"
  unitOfMeasure: "%"
  obsValue: 0
- molecule: "CCCn1cc(C(CC(=O)O)C(=O)O)c2ccccc21 (stereo not given)"
  unitOfMeasure: "%"
  obsValue: 8
- molecule: "O=C(COc1ccccc1Cl)NCCCN1CCOCC1"
  unitOfMeasure: "%"
  obsValue: 0
- molecule: "Cc1onc(-c2ccccc2)c1C(=O)N1CCN(C(=O)c2ccco2)CC1"
  unitOfMeasure: "%"
  obsValue: 0
- molecule: "CCCOc1cccc(-c2nnc(N)s2)c1"
  unitOfMeasure: "%"
  obsValue: 0
- molecule: "Cc1ccc(-c2ccc(=O)n(CCC(=O)NCCN3CCCCC3C)n2)cc1 (stereo not given)"
  unitOfMeasure: "%"
  obsValue: 0
- molecule: "CC(=O)N1CCc2cc(Br)cc(S(=O)(=O)NCCCN3CCCC(C)C3)c21 (stereo not given)"
  unitOfMeasure: "%"
  obsValue: 2
- molecule: "O=C(NCC(=O)N1CCC(N2CCCCC2)CC1)C1CCCCC1"
  unitOfMeasure: "%"
  obsValue: 3
- molecule: "Nc1nc(Nc2cccc3ccccc23)nc(C2CCCC2=O)n1 (stereo not given)"
  unitOfMeasure: "%"
  obsValue: 5
- molecule: "O=C(NCc1nc2ccccc2[nH]1)c1ccco1"
  unitOfMeasure: "%"
  obsValue: 0
- molecule: "CC1CCN(Cc2nc3c(c(=O)n(C)c(=O)n3C)n2Cc2cccc3ccccc23)CC1"
  unitOfMeasure: "%"
  obsValue: 0
- molecule: "Cc1cc(NC(=O)NC(=O)c2cccc(OC(F)(F)C(F)F)c2)n[nH]1"
  unitOfMeasure: "%"
  obsValue: 3
- molecule: "CC(CN1CCCCC1)OC(=O)c1ccc2c(c1)OCO2 (stereo not given)"
  unitOfMeasure: "%"
  obsValue: 0
- molecule: "C[C@@H]1C[C@H]2[C@@H]3C[C@H](F)C4=CC(=O)C=C[C@]4(C)[C@@]3(F)[C@@H](O)C[C@]2(C)[C@@]1(O)C(=O)CO"
  unitOfMeasure: "%"
  obsValue: 0
- molecule: "CCCCOC(=O)Cn1c(=N)n(CCN2CCOCC2)c2ccccc21"
  unitOfMeasure: "%"
  obsValue: 0
- molecule: "Cc1ccc2oc(C(=O)Nc3c(C)n(C)n(-c4ccccc4)c3=O)c(C)c2c1"
  unitOfMeasure: "%"
  obsValue: 0
- molecule: "Cn1c(=O)c2c(nc(SCCCO)n2Cc2ccccc2Cl)n(C)c1=O"
  unitOfMeasure: "%"
  obsValue: 3
- molecule: "Cc1ccc2[nH]c(=O)c(CN(CCCO)S(=O)(=O)c3c(C)ccc4nsnc34)cc2c1"
  unitOfMeasure: "%"
  obsValue: 6
- molecule: "Oc1ccc(C2NCc3ccccc3-n3cccc32)cc1Cl (stereo not given)"
  unitOfMeasure: "%"
  obsValue: 0
- molecule: "CC(C)OC(=O)CSc1nnnn1-c1ccc2c(c1)OCCO2"
  unitOfMeasure: "%"
  obsValue: 2
- molecule: "CCOC(=O)c1ccc(N2Cc3cc(C)c(C)cc3C2)cc1O"
  unitOfMeasure: "%"
  obsValue: 2
- molecule: "CCOC(=O)c1ccccc1NC1CC(=O)N(c2ccccc2C)C1=O (stereo not given)"
  unitOfMeasure: "%"
  obsValue: 0
- molecule: "CC1=C(C(=O)Nc2cccnc2)C(c2ccc(C(C)C)cc2)n2ncnc2N1 (stereo not given)"
  unitOfMeasure: "%"
  obsValue: 1
- molecule: "O=c1c(CN2CCN(Cc3ccccc3)CC2)coc2ccc(Cl)cc12"
  unitOfMeasure: "%"
  obsValue: 0
- molecule: "COc1c2ccoc2nc2c(OC)c(OCC(O)C(C)(C)O)ccc12 (stereo not given)"
  unitOfMeasure: "%"
  obsValue: 0
- molecule: "COc1cccc(NC(=O)NC2(C(F)(F)F)Oc3ccccc3O2)c1"
  unitOfMeasure: "%"
  obsValue: 0
- molecule: "CCCCC(=O)O[C@]1(C(=O)CO)CC[C@H]2[C@@H]3CCC4=CC(=O)CC[C@]4(C)[C@H]3[C@@H](O)C[C@@]21C"
  unitOfMeasure: "%"
  obsValue: 10
- molecule: "CC(C)OC(=O)c1cccc(C(=O)O)n1"
  unitOfMeasure: "%"
  obsValue: 4
- molecule: "Cc1ccc2occ(CN3CCN(c4ccccc4)CC3)c(=O)c2c1"
  unitOfMeasure: "%"
  obsValue: 0
- molecule: "C/C(N)=C(/C#N)C(=O)COC(=O)c1cc(C)n(-c2ccc(F)cc2)c1C"
  unitOfMeasure: "%"
  obsValue: 2
- molecule: "O=C(CCCN1C(=O)c2ccccc2C1=O)Oc1ccc(F)cc1"
  unitOfMeasure: "%"
  obsValue: 1
- molecule: "CCCC(CCC)C(=O)NCCN1CCOCC1"
  unitOfMeasure: "%"
  obsValue: 0
- molecule: "CN=Cc1cc(-c2ccccc2)sc1O"
  unitOfMeasure: "%"
  obsValue: 0
- molecule: "Cc1cccc(CN2CCN(C(c3ccccc3)c3ccc(Cl)cc3)CC2)c1 (stereo not given)"
  unitOfMeasure: "%"
  obsValue: 11
- molecule: "O=C(CN1CCN(Cc2ccc3c(c2)OCO3)CC1)Nc1ccc2c(c1)OCCO2"
  unitOfMeasure: "%"
  obsValue: 0
- molecule: "COc1cc(S(=O)(=O)N2CCC(N3CCCCC3)CC2)ccc1-n1cnnn1"
  unitOfMeasure: "%"
  obsValue: 3
- molecule: "CC1=CC2=C(OC1N(C)C)c1cccc3cccc(c13)C2=O (stereo not given)"
  unitOfMeasure: "%"
  obsValue: 5
- molecule: "Cc1ccc(CC2C(=O)N(C)C(=O)N(C)C2=O)s1"
  unitOfMeasure: "%"
  obsValue: 0
- molecule: "COc1cc2c(cc1OC)CN(CC(=O)Nc1cccc(C)c1)CC2"
  unitOfMeasure: "%"
  obsValue: 11
- molecule: "Cc1ccc(-c2nnn(CC(=O)N(CC(=O)NC3CCCCC3)c3cnc4ccccc4c3)n2)o1"
  unitOfMeasure: "%"
  obsValue: 8
- molecule: "COc1cccc2cc(C(=O)Nc3cccnc3N3CCOCC3)c(=O)oc12"
  unitOfMeasure: "%"
  obsValue: 0
- molecule: "O=C(Nn1cnnc1)c1cc2c(s1)CCCC2"
  unitOfMeasure: "%"
  obsValue: 0
- molecule: "COc1ccc(OC)c(C(=O)c2ccc(C(=O)O)cc2)c1"
  unitOfMeasure: "%"
  obsValue: 0

This collection of values is drawn from PubChem BioAssay.
